Target: T1, human GPVI on platelets (human, UniProt Q9HCN6 21-339)
T1 sequence (looked up): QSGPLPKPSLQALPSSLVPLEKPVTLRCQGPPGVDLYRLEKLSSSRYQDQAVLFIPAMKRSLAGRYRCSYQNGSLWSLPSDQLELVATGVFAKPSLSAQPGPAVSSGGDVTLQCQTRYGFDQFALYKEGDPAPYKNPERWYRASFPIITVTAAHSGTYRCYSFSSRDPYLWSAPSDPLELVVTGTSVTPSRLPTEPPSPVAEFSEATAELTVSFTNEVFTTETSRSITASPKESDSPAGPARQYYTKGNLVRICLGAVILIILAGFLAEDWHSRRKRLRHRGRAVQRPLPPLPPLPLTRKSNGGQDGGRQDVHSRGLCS
Experiment: cell-based or functional assay
attribute-measured: IC50 for inhibition of collagen induced platelet aggregation (human PRP), Test 2 (µg/mL)
Report the value in µg/mL with no unit label.

Enquiry: Return the recorded IC50 for inhibition of collagen induced platelet aggregation (human PRP), Test 2 value; entry: humanized anti-GPVI Fab VL1/VH2 (Fab, V domains shown, Recombinant Fab: VH fused to CH1 of human IGHG1 (Q569F4), HC ends in DKTHT; VL fused to human constant kappa (Q502W4); also called VL1 with VH2) VH: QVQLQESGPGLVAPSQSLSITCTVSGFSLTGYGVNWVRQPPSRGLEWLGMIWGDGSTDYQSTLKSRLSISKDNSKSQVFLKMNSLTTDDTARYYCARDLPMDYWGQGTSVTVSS VL: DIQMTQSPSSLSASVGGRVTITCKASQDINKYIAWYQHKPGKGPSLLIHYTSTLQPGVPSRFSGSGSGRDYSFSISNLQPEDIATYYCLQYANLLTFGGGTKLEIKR
Return: 2

Enquiry: Return the recorded IC50 for inhibition of collagen induced platelet aggregation (human PRP), Test 2 value; entry: humanized anti-GPVI Fab VL3/VH4 (Fab, V domains shown, Recombinant Fab: VH fused to CH1 of human IGHG1 (Q569F4), HC ends in DKTHT; also called VL3 with VH4) VH: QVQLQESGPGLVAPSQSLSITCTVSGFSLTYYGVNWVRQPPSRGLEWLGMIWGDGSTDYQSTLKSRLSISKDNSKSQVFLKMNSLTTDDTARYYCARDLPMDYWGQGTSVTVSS VL: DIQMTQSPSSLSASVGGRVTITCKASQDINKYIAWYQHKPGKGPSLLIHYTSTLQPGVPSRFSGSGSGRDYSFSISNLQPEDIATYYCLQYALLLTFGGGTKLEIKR
Return: 2.3

Entry source: patent US20150098939A1
